IC50, Acetylcholinesterase (Electrophorus electricus, UniProt O42275): measured values
Write the number in nM without appending the unit.

[
  {
    "Compound": "N#CC1=C(N)Oc2c(c(=O)oc3ccccc23)C1c1cc[n+](Cc2ccccc2F)cc1 (centres undefined)",
    "Recorded Measurement": 2900
  },
  {
    "Compound": "N#CC1=C(N)Oc2c(c(=O)oc3ccccc23)C1c1ccc[n+](Cc2ccccc2Cl)c1 (centres undefined)",
    "Recorded Measurement": 1000
  },
  {
    "Compound": "Cc1cccc(C[n+]2cccc(C3C(C#N)=C(N)Oc4c3c(=O)oc3ccccc43)c2)c1 (centres undefined)",
    "Recorded Measurement": 790
  },
  {
    "Compound": "N#CC1=C(N)Oc2c(c(=O)oc3ccccc23)C1c1cc[n+](Cc2cccc(F)c2)cc1 (centres undefined)",
    "Recorded Measurement": 2800
  },
  {
    "Compound": "N#CC1=C(N)Oc2c(c(=O)oc3ccccc23)C1c1cc[n+](Cc2ccc(Cl)c(Cl)c2)cc1 (centres undefined)",
    "Recorded Measurement": 44
  }
]

Input line: Supply measured IC50 of N#CC1=C(N)Oc2c(c(=O)oc3ccccc23)C1c1cc[n+](Cc2ccc(Cl)cc2Cl)cc1 (centres undefined) in your reply.
Output line: 831

Input line: Supply measured IC50 of N#CC1=C(N)Oc2c(c(=O)oc3ccccc23)C1c1cc[n+](Cc2ccc(F)cc2)cc1 (centres undefined) in your reply.
Output line: 38

Input line: Supply measured IC50 of Cc1cccc(C[n+]2ccc(C3C(C#N)=C(N)Oc4c3c(=O)oc3ccccc43)cc2)c1 (centres undefined) in your reply.
Output line: 1900

Input line: Supply measured IC50 of N#CC1=C(N)Oc2c(c(=O)oc3ccccc23)C1c1ccc[n+](Cc2cccc(Cl)c2)c1 (centres undefined) in your reply.
Output line: 7400

---

Target: Cholinesterase (Equus caballus)
Assay: Inhibition of equine serum BChE using butyrylthiocholine iodide as substrate after 2 mins by Ellman's method
Mark met for IC50 under 6 µM, not met if at or over.

Field: example entries. Status: answers known.
[
  {
    "Molecule": "Cc1cccc(C[n+]2cccc(C3C(C#N)=C(N)Oc4c3c(=O)oc3ccccc43)c2)c1 (stereo unspecified)",
    "Target Or Test System": "Cholinesterase (Equus caballus)",
    "Class Assignment": "not met"
  },
  {
    "Molecule": "N#CC1=C(N)Oc2c(c(=O)oc3ccccc23)C1c1cc[n+](Cc2ccccc2F)cc1 (stereo unspecified)",
    "Target Or Test System": "Cholinesterase (Equus caballus)",
    "Class Assignment": "not met"
  },
  {
    "Molecule": "Cc1ccccc1C[n+]1ccc(C2C(C#N)=C(N)Oc3c2c(=O)oc2ccccc32)cc1 (stereo unspecified)",
    "Target Or Test System": "Cholinesterase (Equus caballus)",
    "Class Assignment": "not met"
  },
  {
    "Molecule": "N#CC1=C(N)Oc2c(c(=O)oc3ccccc23)C1c1cc[n+](Cc2cccc(F)c2)cc1 (stereo unspecified)",
    "Target Or Test System": "Cholinesterase (Equus caballus)",
    "Class Assignment": "not met"
  },
  {
    "Molecule": "Cc1cccc(C[n+]2ccc(C3C(C#N)=C(N)Oc4c3c(=O)oc3ccccc43)cc2)c1 (stereo unspecified)",
    "Target Or Test System": "Cholinesterase (Equus caballus)",
    "Class Assignment": "met"
  }
]

Let's switch to this molecule now.
Input line: IC50 under 6 µM? Item: N#CC1=C(N)Oc2c(c(=O)oc3ccccc23)C1c1cc[n+](Cc2ccccc2Cl)cc1 (stereo unspecified)
Output line: met

---

Measured Ratio IC50 of individual entries
Assay: Selectivity ratio of IC50 for equine serum BChE to IC50 for electric eel AChE
Number only, please.

[
  {
    "Molecule": "N#CC1=C(N)Oc2c(c(=O)oc3ccccc23)C1c1ccc[n+](Cc2ccccc2F)c1 (stereo unspecified)",
    "Property Measured": "Ratio IC50",
    "Recorded Measurement": 22.8
  },
  {
    "Molecule": "Cc1cccc(C[n+]2cccc(C3C(C#N)=C(N)Oc4c3c(=O)oc3ccccc43)c2)c1 (stereo unspecified)",
    "Property Measured": "Ratio IC50",
    "Recorded Measurement": 18.1
  },
  {
    "Molecule": "N#CC1=C(N)Oc2c(c(=O)oc3ccccc23)C1c1cc[n+](Cc2ccccc2Cl)cc1 (stereo unspecified)",
    "Property Measured": "Ratio IC50",
    "Recorded Measurement": 3.2
  },
  {
    "Molecule": "N#CC1=C(N)Oc2c(c(=O)oc3ccccc23)C1c1cc[n+](Cc2ccc(Cl)c(Cl)c2)cc1 (stereo unspecified)",
    "Property Measured": "Ratio IC50",
    "Recorded Measurement": 28.9
  },
  {
    "Molecule": "Cc1ccccc1C[n+]1ccc(C2C(C#N)=C(N)Oc3c2c(=O)oc2ccccc32)cc1 (stereo unspecified)",
    "Property Measured": "Ratio IC50",
    "Recorded Measurement": 4.8
  }
]

Now for the molecule whose Ratio IC50 we want.
Input line: Supply measured Ratio IC50 of N#CC1=C(N)Oc2c(c(=O)oc3ccccc23)C1c1ccc[n+](Cc2ccc(F)cc2)c1 (stereo unspecified) in your reply.
Output line: 1

---

pIC50, Acetylcholinesterase (Electrophorus electricus): measured values
Expect pIC50 as a plain number equal to -log10 of the molar concentration.

[
  {
    "Compound": "N#CC1=C(N)Oc2c(c(=O)oc3ccccc23)C1c1ccc[n+](Cc2cccc(F)c2)c1 (stereo unspecified)",
    "Target Or Test System": "Acetylcholinesterase (Electrophorus electricus)",
    "Property Measured": "pIC50",
    "Recorded Measurement": 5.70
  }
]

Input line: Quote pIC50 with test system Acetylcholinesterase (Electrophorus electricus) for N#CC1=C(N)Oc2c(c(=O)oc3ccccc23)C1c1cc[n+](Cc2ccccc2Cl)cc1 (stereo unspecified)
Output line: 5.82

Input line: Quote pIC50 with test system Acetylcholinesterase (Electrophorus electricus) for N#CC1=C(N)Oc2c(c(=O)oc3ccccc23)C1c1cc[n+](Cc2cccc(Cl)c2)cc1 (stereo unspecified)
Output line: 6.32

Input line: Quote pIC50 with test system Acetylcholinesterase (Electrophorus electricus) for N#CC1=C(N)Oc2c(c(=O)oc3ccccc23)C1c1ccc[n+](Cc2ccc(F)cc2)c1 (stereo unspecified)
Output line: 5.66

Input line: Quote pIC50 with test system Acetylcholinesterase (Electrophorus electricus) for Cc1ccccc1C[n+]1ccc(C2C(C#N)=C(N)Oc3c2c(=O)oc2ccccc32)cc1 (stereo unspecified)
Output line: 5.43

Input line: Quote pIC50 with test system Acetylcholinesterase (Electrophorus electricus) for N#CC1=C(N)Oc2c(c(=O)oc3ccccc23)C1c1ccc[n+](Cc2ccccc2F)c1 (stereo unspecified)
Output line: 5.74

---

Assay: Selectivity ratio of IC50 for equine serum BChE to IC50 for electric eel AChE
Measured Ratio IC50 of individual entries
Number only, please.

Observe how each entry below is paired with its result.
[
  {
    "Compound": "N#CC1=C(N)Oc2c(c(=O)oc3ccccc23)C1c1ccc[n+](Cc2cccc(Cl)c2)c1 (centres undefined)",
    "Ratio IC50": 5.2
  },
  {
    "Compound": "N#CC1=C(N)Oc2c(c(=O)oc3ccccc23)C1c1cc[n+](Cc2ccc(Cl)cc2Cl)cc1 (centres undefined)",
    "Ratio IC50": 0.68
  },
  {
    "Compound": "Cc1cccc(C[n+]2ccc(C3C(C#N)=C(N)Oc4c3c(=O)oc3ccccc43)cc2)c1 (centres undefined)",
    "Ratio IC50": 2.6
  },
  {
    "Compound": "N#CC1=C(N)Oc2c(c(=O)oc3ccccc23)C1c1ccc[n+](Cc2ccccc2Cl)c1 (centres undefined)",
    "Ratio IC50": 11.2
  },
  {
    "Compound": "N#CC1=C(N)Oc2c(c(=O)oc3ccccc23)C1c1cc[n+](Cc2ccc(F)cc2)cc1 (centres undefined)",
    "Ratio IC50": 48.4
  }
]

Input line: Supply measured Ratio IC50 of N#CC1=C(N)Oc2c(c(=O)oc3ccccc23)C1c1cc[n+](Cc2ccccc2F)cc1 (centres undefined) in your reply.
Output line: 12.4

Input line: Supply measured Ratio IC50 of N#CC1=C(N)Oc2c(c(=O)oc3ccccc23)C1c1cc[n+](Cc2cccc(Cl)c2)cc1 (centres undefined) in your reply.
Output line: 45.4

---

Target: Cholinesterase (Equus caballus, UniProt P81908)
Sequence (P81908 whole entry): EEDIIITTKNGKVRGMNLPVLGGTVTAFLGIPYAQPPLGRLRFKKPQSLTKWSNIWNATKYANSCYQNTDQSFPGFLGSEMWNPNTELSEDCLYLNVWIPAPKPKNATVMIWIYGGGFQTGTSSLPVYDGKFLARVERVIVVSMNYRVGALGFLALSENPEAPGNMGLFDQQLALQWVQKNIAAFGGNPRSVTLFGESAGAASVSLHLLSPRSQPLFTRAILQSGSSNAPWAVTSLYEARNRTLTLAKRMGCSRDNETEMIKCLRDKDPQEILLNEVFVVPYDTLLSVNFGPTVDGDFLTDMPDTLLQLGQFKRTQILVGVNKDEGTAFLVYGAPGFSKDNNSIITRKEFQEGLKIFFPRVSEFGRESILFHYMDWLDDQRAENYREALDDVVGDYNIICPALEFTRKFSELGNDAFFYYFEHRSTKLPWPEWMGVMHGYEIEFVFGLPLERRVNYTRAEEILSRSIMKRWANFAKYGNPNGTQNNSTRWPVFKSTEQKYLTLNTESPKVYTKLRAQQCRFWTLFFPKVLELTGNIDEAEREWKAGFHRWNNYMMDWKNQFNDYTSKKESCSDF
Experiment: Inhibition of equine serum BChE using butyrylthiocholine iodide as substrate after 2 mins by Ellman's method
Property Measured: log10(IC50) (log10 of the value in µM)
Note: values are log10 of IC50 expressed in µM.

Observe how each entry below is paired with its result.
[
  {
    "Compound": "N#CC1=C(N)Oc2c(c(=O)oc3ccccc23)C1c1cc[n+](Cc2ccc(Cl)c(Cl)c2)cc1 (centres undefined)",
    "Property Measured": "log10(IC50)",
    "Recorded Measurement": 0.10
  },
  {
    "Compound": "N#CC1=C(N)Oc2c(c(=O)oc3ccccc23)C1c1ccc[n+](Cc2ccccc2F)c1 (centres undefined)",
    "Property Measured": "log10(IC50)",
    "Recorded Measurement": 1.61
  },
  {
    "Compound": "N#CC1=C(N)Oc2c(c(=O)oc3ccccc23)C1c1ccc[n+](Cc2cccc(Cl)c2)c1 (centres undefined)",
    "Property Measured": "log10(IC50)",
    "Recorded Measurement": 1.58
  },
  {
    "Compound": "N#CC1=C(N)Oc2c(c(=O)oc3ccccc23)C1c1cc[n+](Cc2cccc(Cl)c2)cc1 (centres undefined)",
    "Property Measured": "log10(IC50)",
    "Recorded Measurement": 1.34
  },
  {
    "Compound": "N#CC1=C(N)Oc2c(c(=O)oc3ccccc23)C1c1cc[n+](Cc2ccc(F)cc2)cc1 (centres undefined)",
    "Property Measured": "log10(IC50)",
    "Recorded Measurement": 0.26
  },
  {
    "Compound": "N#CC1=C(N)Oc2c(c(=O)oc3ccccc23)C1c1cc[n+](Cc2ccc(Cl)cc2Cl)cc1 (centres undefined)",
    "Property Measured": "log10(IC50)",
    "Recorded Measurement": -0.25
  }
]

Input line: Quote log10(IC50) with test system Cholinesterase (Equus caballus, UniProt P81908) for N#CC1=C(N)Oc2c(c(=O)oc3ccccc23)C1c1ccc[n+](Cc2ccccc2Cl)c1 (centres undefined)
Output line: 1.05

Input line: Quote log10(IC50) with test system Cholinesterase (Equus caballus, UniProt P81908) for N#CC1=C(N)Oc2c(c(=O)oc3ccccc23)C1c1ccc[n+](Cc2ccc(F)cc2)c1 (centres undefined)
Output line: 0.34
